Ref: ChEMBL document CHEMBL3885881

Organism: Rattus norvegicus
testMethodNotes: DrugMatrix - Regimen: Daily Repeat
Assay type: toxicity, organism-based, Sprague-Dawley
Set-up: regimen Daily Repeat, gender Male, age 6-8 weeks
conditionSet: in vivo, po, 0 mg/kg, 72 h, tissue Blood, route oral GAVAGE, dose level Control, time 3 day, vehicle 100 % WATER
attributeMeasured: LEUKOCYTE COUNT (x10E3/uL)
Could you give me the number in x10E3/uL? Just the number is fine.

Field: example entries. Status: answers known.
COc1cc2c(N3CCN(C(=O)Nc4ccc(OC(C)C)cc4)CC3)ncnc2cc1OCCCN1CCCCC1 : 13.95
Fc1ccc([C@@H]2CCNC[C@H]2COc2ccc3c(c2)OCO3)cc1 : 10.2
CC(CCc1ccccc1)NCC(O)c1ccc(O)c(C(N)=O)c1 (stereo not given) : 15.17

If you can, please state the reported LEUKOCYTE COUNT value of Clc1ccc(C(c2ccccc2Cl)C(Cl)Cl)cc1 (stereo not given) . 12.87

Fill blank: measured LEUKOCYTE COUNT of the compound Cc1cc(NS(=O)(=O)c2ccc(N)cc2)no1 is ____. 14.32
